- Measured Target: ΔF508-CFTR (Homo sapiens, UniProt P13569, DEL508-508)
- Construct: Fisher rat epithelial (FRT) cells for Ussing chamber follow-up
- Sequence (P13569 with tags, fused parts or gaps DEL508-508): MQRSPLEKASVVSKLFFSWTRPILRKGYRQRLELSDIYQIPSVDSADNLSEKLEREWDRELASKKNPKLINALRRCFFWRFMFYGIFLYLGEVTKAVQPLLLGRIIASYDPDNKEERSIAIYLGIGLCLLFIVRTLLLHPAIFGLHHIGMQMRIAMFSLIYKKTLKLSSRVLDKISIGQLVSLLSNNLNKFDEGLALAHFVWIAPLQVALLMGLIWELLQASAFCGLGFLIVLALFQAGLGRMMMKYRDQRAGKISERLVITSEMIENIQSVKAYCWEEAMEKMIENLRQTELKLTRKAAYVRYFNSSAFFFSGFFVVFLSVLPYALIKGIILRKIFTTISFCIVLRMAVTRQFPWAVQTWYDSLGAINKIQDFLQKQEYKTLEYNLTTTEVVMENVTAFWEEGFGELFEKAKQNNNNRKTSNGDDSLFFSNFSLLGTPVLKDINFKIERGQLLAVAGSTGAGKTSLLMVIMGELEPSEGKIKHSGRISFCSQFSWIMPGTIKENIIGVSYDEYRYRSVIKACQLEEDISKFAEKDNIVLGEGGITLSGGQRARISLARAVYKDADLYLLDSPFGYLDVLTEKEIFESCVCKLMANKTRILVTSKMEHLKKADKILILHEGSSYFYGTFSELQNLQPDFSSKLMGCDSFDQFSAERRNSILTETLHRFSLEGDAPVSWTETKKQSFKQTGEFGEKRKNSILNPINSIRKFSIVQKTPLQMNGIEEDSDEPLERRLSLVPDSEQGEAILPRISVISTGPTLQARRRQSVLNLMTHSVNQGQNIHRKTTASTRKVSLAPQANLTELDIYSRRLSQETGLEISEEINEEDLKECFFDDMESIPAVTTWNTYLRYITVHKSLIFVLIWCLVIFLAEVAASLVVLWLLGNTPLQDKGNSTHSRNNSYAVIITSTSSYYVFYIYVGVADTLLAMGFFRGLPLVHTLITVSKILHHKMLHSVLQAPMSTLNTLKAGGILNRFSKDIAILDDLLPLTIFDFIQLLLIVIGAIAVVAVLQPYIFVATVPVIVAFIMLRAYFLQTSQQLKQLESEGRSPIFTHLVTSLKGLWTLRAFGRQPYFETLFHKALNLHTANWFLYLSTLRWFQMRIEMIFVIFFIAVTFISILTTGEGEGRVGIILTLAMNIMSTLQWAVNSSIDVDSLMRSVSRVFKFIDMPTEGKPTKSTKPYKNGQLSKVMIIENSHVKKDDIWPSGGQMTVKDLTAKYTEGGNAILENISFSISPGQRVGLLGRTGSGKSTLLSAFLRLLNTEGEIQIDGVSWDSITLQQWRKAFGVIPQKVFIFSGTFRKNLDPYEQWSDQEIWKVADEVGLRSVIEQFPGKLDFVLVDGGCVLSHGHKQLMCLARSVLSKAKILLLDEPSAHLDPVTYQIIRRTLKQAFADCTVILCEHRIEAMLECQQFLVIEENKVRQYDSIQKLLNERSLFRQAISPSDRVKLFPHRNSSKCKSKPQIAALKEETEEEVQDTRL
- Measurement Description: Assays for ΔF508-CFTR correction and potentiator properties (membrane potential optical and electrophysiological methods)
- Protocol Conditions: CFTR modulation, tested using the above methods
- Description: Assays for Detecting and Measuring ΔF508-CFTR Correction and Potentiator Properties of Compounds A) Membrane Potential Optical Methods for Assaying ΔF508-CFTR Modulation Properties of Compounds […] These voltage sensitive assays are based on the change in fluorescence resonant energy transfer (FRET) between the membrane-soluble, voltage-sensitive dye, DiSBAC2 (3), and a fluorescent phospholipid, CC2-DMPE, which is attached to the outer leaflet of the plasma membrane and acts as a FRET donor. […]
Entries and their measured EC50 follow.

- Compound: "Cc1ccc(S(=O)(=O)N2CCN(C(C)C(=O)Nc3nc(-c4ccccc4)c(-c4ccccc4)s3)CC2)cc1 (stereo not drawn) [compound 198]"
  EC50: "< 10 µM"
- Compound: "O=C(Nc1ncc(Cc2ccccc2Cl)o1)C1Cc2ccccc21 (stereo not drawn) [compound 188]"
  EC50: "25 to 60 µM"
- Compound: "O=C(Nc1ncc(Cc2ccccc2Cl)o1)C(c1ccccc1)C1CCCCC1 (stereo not drawn) [compound 186]"
  EC50: "10 to 25 µM"

Query: Please report the measured EC50 for CC[C@@H](C(=O)Nc1ncc(Cc2cccc(Cl)c2)s1)c1ccccc1 [compound 203]
Result: < 10 µM

Query: Please report the measured EC50 for CCC(C(=O)Nc1ncc(Cc2ccccc2Cl)n1C)c1ccccc1 (stereo not drawn) [compound 278]
Result: < 10 µM

Query: Please report the measured EC50 for O=C(Nc1ncc(Cc2ccccc2Cl)s1)C(c1ccccc1)C1CCCCC1 (stereo not drawn) [compound 91]
Result: < 10 µM

Query: Please report the measured EC50 for O=C(Nc1nc(-c2ccccc2)c(-c2ccccc2)s1)C1CCCC1 [compound 113]
Result: < 10 µM

Query: Please report the measured EC50 for CC1CCCN1C(C(=O)Nc1ncc(Cc2ccccc2Cl)s1)c1ccccc1 (stereo not drawn) [compound 242]
Result: < 10 µM

Query: Please report the measured EC50 for CC(C)CC(=O)Nc1nc(-c2ccccc2)c(-c2ccccc2)s1 [compound 110]
Result: < 10 µM

Source listed as patent US9249131B2.
